# target.system: T1, NtHY5 (6xHis-HY5) (Nicotiana tabacum, UniProt A0A1S3YJY6 1-158)
# T1 sequence: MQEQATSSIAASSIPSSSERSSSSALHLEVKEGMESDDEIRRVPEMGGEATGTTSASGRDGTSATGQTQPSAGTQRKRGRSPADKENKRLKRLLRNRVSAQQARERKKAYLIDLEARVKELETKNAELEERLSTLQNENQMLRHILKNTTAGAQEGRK
# test: EMSA
attribute.measured: binding result

{"binder": "NtPMT Mut P1 (G-mut I) (dsDNA) DNA 1: CAGTCTAACCATGATTAATGTAATGATTTT DNA 2: AAAATCATTACATTAATCATGGTTAGACTG", "reading": "no binding"}
{"binder": "NtMYB12 P2 (G-BOX II) (dsDNA) DNA 1: AGTCAACTTTGCAACGTAAAAGTCCACACA DNA 2: TGTGTGGACTTTTACGTTGCAAAGTTGACT", "reading": "binds"}
{"binder": "NtODC P1 (G-BOX I) (dsDNA) DNA 1: ATCTGATCACCTAACGTGACCAAGAAAATA DNA 2: TATTTTCTTGGTCACGTTAGGTGATCAGAT", "reading": "binds"}
{"binder": "NtPMT P2 (G-BOX II) (dsDNA) DNA 1: TACTGTTTCCGCAACGTGCTCTTCATCAGG DNA 2: CCTGATGAAGAGCACGTTGCGGAAACAGTA", "reading": "binds"}
{"binder": "NtPMT Mut P2 (G-mut II) (dsDNA) DNA 1: TACTGTTTCCGCAATCTTCTCTTCATCAGG DNA 2: CCTGATGAAGAGAAGATTGCGGAAACAGTA", "reading": "no binding"}
